// provenance: ChEMBL document CHEMBL2375318

test: Cytotoxicity against human RBC assessed as hemolytic activity at 100 uM after 1 hr by spectophotometry; assay type: cell-based, Erythrocyte; conditions: red blood cells (RBC), read-out: Activity
Quick rule for you: hemolysis at 1 h, 100 µM at 7% or higher means fulfilled, lower means not fulfilled.

# Query Smiles, Label
records = [
    ("Clc1ccc(-n2cc(CN(Cc3cn(-c4ccc(Cl)cc4)nn3)c3nc4ccccc4s3)nn2)cc1", "not fulfilled"),
    ("COc1cccc(-n2cc(CN(Cc3cn(-c4cccc(OC)c4)nn3)c3nc4ccccc4s3)nn2)c1", "fulfilled"),
    ("Cc1ccc(-n2cc(CN(Cc3cn(-c4ccc(C)c(C)c4)nn3)c3nc4ccccc4s3)nn2)cc1C", "fulfilled"),
    ("COc1cc(-n2cc(CN(Cc3cn(-c4cc(OC)c(OC)c(OC)c4)nn3)c3nc4ccccc4s3)nn2)cc(OC)c1OC", "fulfilled"),
    ("Fc1ccc(-n2cc(CN(Cc3cn(-c4ccc(F)c(Cl)c4)nn3)c3nc4ccccc4s3)nn2)cc1Cl", "not fulfilled"),
    ("Cc1cc(C)cc(-n2cc(CN(Cc3cn(-c4cc(C)cc(C)c4)nn3)c3nc4ccccc4s3)nn2)c1", "fulfilled"),
    ("Brc1ccc(-n2cc(CN(Cc3cn(-c4ccc(Br)cc4)nn3)c3nc4ccccc4s3)nn2)cc1", "fulfilled"),
    ("Cc1cc(F)ccc1-n1cc(CN(Cc2cn(-c3ccc(F)cc3C)nn2)c2nc3ccccc3s2)nn1", "fulfilled"),
]
